The following binders are shown together with reported IC50 values.
targetUnderTest: T1, human MCAM expressed on CHO cells (full length human MCAM gene) (human, UniProt P43121 24-646)
T1 construct: also called hMCAM expressing CHO cells; CD146
T1 chain: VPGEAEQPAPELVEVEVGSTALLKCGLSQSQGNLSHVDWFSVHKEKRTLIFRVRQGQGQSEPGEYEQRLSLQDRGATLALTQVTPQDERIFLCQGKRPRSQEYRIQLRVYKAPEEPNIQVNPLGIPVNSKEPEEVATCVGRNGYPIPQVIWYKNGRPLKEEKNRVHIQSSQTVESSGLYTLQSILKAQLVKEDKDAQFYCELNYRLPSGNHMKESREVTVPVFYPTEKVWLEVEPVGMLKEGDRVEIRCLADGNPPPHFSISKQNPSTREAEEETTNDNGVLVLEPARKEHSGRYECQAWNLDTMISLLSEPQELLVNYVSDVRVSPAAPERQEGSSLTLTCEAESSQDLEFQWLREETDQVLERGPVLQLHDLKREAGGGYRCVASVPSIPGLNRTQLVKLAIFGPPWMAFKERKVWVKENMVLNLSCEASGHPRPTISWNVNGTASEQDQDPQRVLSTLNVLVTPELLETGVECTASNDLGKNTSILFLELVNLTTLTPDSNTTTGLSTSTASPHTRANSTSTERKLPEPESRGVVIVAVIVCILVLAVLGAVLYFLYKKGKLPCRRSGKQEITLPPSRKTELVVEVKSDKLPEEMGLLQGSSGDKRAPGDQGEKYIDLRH
assayDetails: flow cytometry: blocking of recombinant human laminin 411 (20 ug/ml) binding to CHO cells expressing human MCAM
In your response, the unit should come after the numeric value.

mouse anti-human MCAM monoclonal antibody clone 1749.1.3 (antibody, V domains shown, Mouse hybridoma antibody) VH: DVKLVESGGDLVKPGGSLKLSCAASGFTFSSYIMSWVRQTPEKRLEWVATISSGGSSTYYPDSVKGRFTISRDNAKNTLYLQMSSLKSEDTAMYYCTRDDDYDVKVFAYWGQGTLVTVSA VL: DIVMSQSPSSLAVSAGEKVTMNCKSSRSLLNSRIRKNYLAWYQQKPGQSPKLLIYWASTRESGVPDRFTGSGSGTDFTLTISSVQAEDLAVYYCKQSYNLLTFGAGTKLELK
0.545 µg/mL

Consider the record given below.
## Task Please report IC50 for the following binder: rat anti-human MCAM monoclonal antibody clone 2107.4.10 (antibody, V domains shown, Rat hybridoma antibody) VH: QVQLKESGPGLVQSSQTLSLTCTVSGFSLTSNGVSWVRQPPGKGLEWIAAISSGGSTYYNSAFKSRLSISRNTSKSQVLLKMNSLQTEDTGMYFCARHRPFYFDYWGQGVMVTVSS VL: DIQVTQSPSLLSASVGDRVTLNCKGSQNIYKSLAWFRLKRGEAPKLLIYDANSLQTGIPSRFSGSGSGTDFTLTITSLQPEDVATYFCQQYYSGYTFGAGTKLELK
## Result 0.29 µg/mL
